experiment: NCI Yeast Anticancer Drug Screen. Data for the mec2-1 strain (AID 157); settings: S. cerevisiae mec2-1 strain, at 50.0 µM, active compounds read high
Compounds without any hit were thinned out: in the full panel of roughly 79,000, 15% have a hit. Where a SMILES comes first, the peptide text is derived from it. [ ]: non-standard residue; d: D form. The star is where a group is joined. Cbz = O=C(OCc1ccccc1)*; Nva = CCC[CH](N)C(=O)O
Please go through the items and note down their growth inhibition.
Give bare numbers, in %.

Before answering, review these 3 worked examples.
{"molecule": "O=C1OC(=O)C(c2ccccc2)=C1c1ccccc1", "units": "%", "growth inhibition": 5}
{"molecule": "CCCC(NC(=O)OCc1ccccc1)C(=O)NC(CO)C(=O)O (stereo not given) (Cbz-[Nva]-Ser-OH; configuration not given here)", "units": "%", "growth inhibition": 4.15}
{"molecule": "CCCS(=O)(=O)N(CC)CC", "units": "%", "growth inhibition": -10.8}

State the recorded growth inhibition for every item in the following list.
1. CCC1=C/C(=N/O)C(C)=CC1(C)C(Cl)(Cl)Cl (stereo not given)
2. CCCCCCCCCC(=O)N/N=C/c1ccco1
3. CC(=O)C(C(C)=O)[N+](=O)[O-].CC(=O)C(C(C)=O)[N+](=O)[O-].[Cu]
4. Cn1nc(-c2ccccc2)c(-c2ccccc2)c(C#N)c1=O
5. CCCCN(CCCC)c1c([N+](=O)[O-])c(=O)nc2ccccn12

Output:
7.65
59.6
-2.95
-3.55
-3.35

State the recorded growth inhibition for every item in the following list.
1. COc1cc2c(cc1OCc1ccccc1)C(c1cc(OC)c(OC)c(OC)c1)=C1C(=O)OCC1C2 (stereo not given)
2. CCCc1cc(C(=O)N/N=C/c2ccc([N+](=O)[O-])cc2)c2ccccc2n1

Output:
[-1.1, -3.2]

* * *

experiment: NCI Yeast Anticancer Drug Screen. Data for the mec2-1 strain (AID 157); settings: S. cerevisiae mec2-1 strain, at 50.0 µM, active compounds read high
The panel holds about 79,000 compounds, 15% with a hit somewhere; the sample as a whole holds those more often.
Please go through the items and note down their growth inhibition.
Answers are plain numbers, in %.

Before answering, review these 10 worked examples.
{"molecule": "Cc1ccccc1SCC(N)=O", "units": "%", "growth inhibition": 9.1}
{"molecule": "CC(C#N)NCc1ccc(C(C)NC(C)C#N)cc1 (stereo unspecified)", "units": "%", "growth inhibition": 2.15}
{"molecule": "CCCCCCCCCCCC(=O)N(CCOC(=O)c1ccccc1)CCc1ccccc1", "units": "%", "growth inhibition": 9.45}
{"molecule": "O=C(O)CCNc1ncnc2nc[nH]c12", "units": "%", "growth inhibition": -13.2}
{"molecule": "COC1=C(N(C)C)C(=O)c2ccccc2C1=O", "units": "%", "growth inhibition": 0.55}
{"molecule": "CCc1cc2c(ccc3ccccc32)c2c1CCC2", "units": "%", "growth inhibition": -11.7}
{"molecule": "C=CCNC(=O)/C(C)=C(\\C)c1ccc(F)cc1", "units": "%", "growth inhibition": 6}
{"molecule": "CNC(=S)SCc1ccc(Cl)cc1", "units": "%", "growth inhibition": -12.5}
{"molecule": "CC(C)(CCCCC(C)(C)C1NC(=O)N1)C1NC(=O)N1", "units": "%", "growth inhibition": -7.4}
{"molecule": "CC(C)CCNc1nc(N)[nH]c(=O)c1NC=O", "units": "%", "growth inhibition": 16.1}

State the recorded growth inhibition for every item in the following list.
1. CC(C)CNC(=O)C(=O)NCC(C)C
2. C[N+]1(CCC[N+]2(C)CCC3(CCCCC3)CC2)CCOCC1
3. O=C(CSc1nc2[nH]ncc2c(=O)[nH]1)c1ccc(Cl)cc1
4. C=C(C)C(=O)OC1C(C(C)CCCO)=C(CO)CC2OC(=O)C(=C)C21 (stereo unspecified)
5. Nc1nc(=O)n(CCCCCCc2ccccc2)cc1-c1ccc(Cl)c(Cl)c1
6. CC(=O)C1C(=O)OC2C3C=CC(C3)C2C1=O (stereo unspecified)
7. CC(=O)CC(=O)C1CCC(C(=O)CC(C)=O)CC1 (stereo unspecified)

Output:
1. -9.7
2. -0.05
3. -36.6
4. -29.1
5. -8.95
6. 21.1
7. 6.2

State the recorded growth inhibition for every item in the following list.
1. O=[N+]([O-])c1ccc(/C=C/c2csnn2)cc1
2. O=c1/c(=C/c2ccccc2[N+](=O)[O-])sc2nnc(-c3cccnc3)n12
3. COC(=O)/C(=N/Nc1cccc(Cl)c1)C(C(=O)C(=O)Nc1cccc(Cl)c1C)c1nc2ccccc2nc1C (stereo unspecified)

Output:
-31.8
6.45
17.9

State the recorded growth inhibition for every item in the following list.
1. CCOC(=O)/C(Cc1nc2ccccc2[nH]c1=O)=N\O
2. CC(C)(C)NC(=O)NCc1ccccc1Cl
3. O=c1[nH]cc(CCOCc2ccccc2)c(=O)[nH]1
4. COC(=O)CCOc1ccc(C)cc1
5. O=C(O)/C=C(/Br)c1ccccc1
6. C/C=C/C(=O)N1C(=O)OC[C@@H]1c1ccccc1

Output:
1. 9.95
2. -8.1
3. -8.15
4. 12.9
5. 7.9
6. 54.5
